Study Target: Metabotropic glutamate receptor 5 (Homo sapiens, UniProt P41594)
Sequence (P41594 whole entry): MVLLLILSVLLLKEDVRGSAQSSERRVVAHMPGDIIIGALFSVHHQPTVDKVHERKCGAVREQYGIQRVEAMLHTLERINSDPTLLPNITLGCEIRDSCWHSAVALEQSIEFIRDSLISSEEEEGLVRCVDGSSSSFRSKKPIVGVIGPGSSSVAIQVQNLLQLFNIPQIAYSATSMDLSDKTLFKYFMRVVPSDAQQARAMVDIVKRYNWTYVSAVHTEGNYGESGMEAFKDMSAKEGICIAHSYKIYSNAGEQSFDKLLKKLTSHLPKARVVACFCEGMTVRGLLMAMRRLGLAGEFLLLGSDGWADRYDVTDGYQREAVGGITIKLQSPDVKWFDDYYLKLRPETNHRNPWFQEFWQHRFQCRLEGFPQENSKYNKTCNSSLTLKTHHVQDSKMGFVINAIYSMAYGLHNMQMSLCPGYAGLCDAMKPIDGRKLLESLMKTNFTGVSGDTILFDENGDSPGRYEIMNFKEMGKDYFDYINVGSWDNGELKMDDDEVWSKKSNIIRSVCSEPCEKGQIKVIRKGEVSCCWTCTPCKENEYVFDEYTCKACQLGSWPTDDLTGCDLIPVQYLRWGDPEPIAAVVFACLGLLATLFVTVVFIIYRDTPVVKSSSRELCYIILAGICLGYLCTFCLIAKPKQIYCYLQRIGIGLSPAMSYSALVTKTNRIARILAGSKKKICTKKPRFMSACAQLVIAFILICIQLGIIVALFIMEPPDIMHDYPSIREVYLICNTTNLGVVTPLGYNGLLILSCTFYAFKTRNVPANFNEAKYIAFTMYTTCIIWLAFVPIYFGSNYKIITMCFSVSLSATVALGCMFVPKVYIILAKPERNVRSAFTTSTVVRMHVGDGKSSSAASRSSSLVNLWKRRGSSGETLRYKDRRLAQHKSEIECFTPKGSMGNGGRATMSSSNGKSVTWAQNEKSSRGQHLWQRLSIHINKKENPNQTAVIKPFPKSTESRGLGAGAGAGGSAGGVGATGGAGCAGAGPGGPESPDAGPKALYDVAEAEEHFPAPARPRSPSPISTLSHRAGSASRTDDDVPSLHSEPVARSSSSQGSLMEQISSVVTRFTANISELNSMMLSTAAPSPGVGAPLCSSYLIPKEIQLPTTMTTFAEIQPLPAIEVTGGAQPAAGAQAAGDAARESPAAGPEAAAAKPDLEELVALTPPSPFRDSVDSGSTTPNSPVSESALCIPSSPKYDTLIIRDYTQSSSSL
Run Description: Antagonist activity at human mGluR5 expressed in CHO cells assessed as calcium flux by FLIPR assay
Lab note: compare IC50 with 1 µM, writing Y if less and N if equal or more.

Query: Please state whether IC50 is below 1 µM for `CC(C)(C)OC(=O)N1CC=C(c2cn(-c3ccccn3)nn2)CC1`
Reply: N

Query: Check if IC50 falls below 1 µM for `Cc1c(C2=CCN(C(=O)OC(C)C)CC2)nnn1-c1cccnc1F` .
Reply: Y

Query: Does this compound meet the criterion IC50 < 1 µM? `Cc1c(C2=CCN(C(=O)OC(C)(C)C)CC2)nnn1-c1cccnc1F`
Reply: Y

Query: Identify whether the compound `CC(C)(C)OC(=O)N1CC=C(c2cn(-c3ccc(F)cc3)nn2)CC1` records IC50 below 1 µM.
Reply: N

Query: Problem: For the compound `CC(C)(C)OC(=O)N1CC=C(c2cn(-c3ccccc3)nn2)CC1` , is IC50 under 1 µM?
Reply: Y

Query: Does this compound meet the criterion IC50 < 1 µM? `CC(C)(C)OC(=O)N1CC=C(c2cn(-c3ccncc3)nn2)CC1`
Reply: N

Query: Is 1 µM strictly greater than the compound's reported IC50? compound: `CC(C)(C)OC(=O)N1CC=C(c2cn(-c3cccnc3F)nn2)CC1`
Reply: N

Query: Does the reported IC50 of the following compound sit strictly below 1 µM? `CC(C)(C)CC(=O)N1CC=C(c2cn(-c3ccccc3F)nn2)CC1`
Reply: N

Query: Does this compound meet the criterion IC50 < 1 µM? `CC(C)(C)OC(=O)N1CC=C(c2cn(-c3cccnc3)nn2)CC1`
Reply: N
